System: common ragweed (Ambrosia artemisizfolia L., AMBEL)
Experiment: Pre-emerge test, greenhouse herbicide activity screening
Format: in vivo
Conditions: 250 g ai/ha; rated 14 days after application; 0 = no damage, 100 = complete death
Parameter measured: Pre-emerge Herbicidal Activity, phytotoxicity rating (0-100), AMBEL
Number, no unit, nothing else.

Past entries and their recorded results:
INSERT INTO assay_data (compound, system_under_test, measured_value) VALUES
  ('COc1c(Cl)cc(F)c(-n2c(=O)cc(C(F)(F)F)n(C)c2=O)c1NC(=O)c1cccc(Cl)c1 [2-54]', 'common ragweed (Ambrosia artemisizfolia L., AMBEL)', 100),
  ('COc1c(Cl)cc(F)c(-n2c(=O)cc(C(F)(F)F)n(C)c2=O)c1NC(=O)c1ccc(C#N)cc1 [2-67]', 'common ragweed (Ambrosia artemisizfolia L., AMBEL)', 100),
  ('Cc1c(Cl)cc(F)c(-n2c(=O)cc(C(F)(F)F)n(C)c2=O)c1NC(=O)c1ccc2ccccc2c1 [Compound 2-122]', 'common ragweed (Ambrosia artemisizfolia L., AMBEL)', 90),
  ('COc1c(Cl)cc(F)c(-n2c(=O)cc(C(F)(F)F)n(N)c2=O)c1NC(=O)c1ccc(F)cc1F [2-44]', 'common ragweed (Ambrosia artemisizfolia L., AMBEL)', 100),
  ('COc1c(Cl)cc(F)c(-n2c(=O)cc(C(F)(F)F)n(C)c2=O)c1N(C(=O)c1ccc([N+](=O)[O-])cc1)C(=O)c1ccc([N+](=O)[O-])cc1 [2-69]', 'common ragweed (Ambrosia artemisizfolia L., AMBEL)', 60),
  ('COc1c(Cl)cc(F)c(-n2c(=O)cc(C(F)(F)F)n(C)c2=O)c1NC(=O)c1ccc(Br)cc1 [2-61]', 'common ragweed (Ambrosia artemisizfolia L., AMBEL)', 100);

Next compound, please.
Query: Look at this compound and give its reported Pre-emerge Herbicidal Activity, phytotoxicity rating (0-100), AMBEL. CCOc1ccc(C(=O)Nc2c(OC)c(Cl)cc(F)c2-n2c(=O)cc(C(F)(F)F)n(C)c2=O)cc1 [2-64]
Reply: 60
